Data origin, for the record: patent US20220002344A1

# system.tested: T1, E. coli 70S ribosome particle (E. coli)
# T1 construct: also called ^Ec70S
# assay.remarks: ITC, 30 °C, peptide titrated into E. coli 70S ribosome
Square brackets hold non-standard residues; d marks the D form. Ends that are not written are not given here. Cha = N[C@@H](CC1CCCCC1)C(=O)O
Could you please report measured ΔH for the items listed next?
Field format: number, assumed kJ/mol, no unit text.

Fill in the blank: the reported ΔH of VDKPPYLPRPRPPR[dR]IYN[dR]-NH2 (also called CA3 28; CA3-28) [P28 (Onc112), VDKPPYLPRPRPPRrIYNr-NH2] is ____.
-100

Find the recorded ΔH belonging to VDKGSYLPRPTPPRPIYNRN-NH2 (Bought from Novopro; also called unglycosylated pyrrhocoricin) [Py (Pyrrhocoricin), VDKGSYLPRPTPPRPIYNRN-NH2] and report it.
-80.3

ΔH for VDKPPYLPRPRPPR[dR]IYN[dR]NGPRQ[Cha]DLF-OH (Fusion of Onc112 and P7; the printed Mw 3472.08 agrees with that N; also called CA3-30; Onc-P7) [P30 (Onc112-P7), VDKPPYLPRPRPPRrIYNrNGPRQChaDLF-OH] ?
-107

So what does the record say about ΔH for VDKPPYLPRPRPPR[dR]IYN[dR]NGPR[Cha]FQLD-OH (Control fusion peptide with scrambled P7; also called Onc112-Scr) [P120 (Onc112-P7Scr), VDKPPYLPRPRPPRrIYNrNGPRChaFQLD-OH] ?
-54.4
